Assay Text: HBEC Part B pharmacokinetics, participants with PD
Type: in vivo, human
Condition Set: human, in vivo, oral, 75 mg, participants with PD, Day 14, LY 75 mg (N = 8), geometric mean
Quantity Kind: Cmax

> print(dat)
                                item.smiles     result
1  C[C@H]1c2cccc(CCC(C)(C)O)c2C[C@H](CO)N1C(=O)Cc1c(Cl)cccc1Cl  335 ng/mL

----------
Assay Text: HBEC Part A pharmacokinetics, healthy subjects
Assay type: in vivo, human
Condition Set: human, in vivo, oral, Day 14, LY 75 mg (N = 9), geometric mean, read-out: CLr (renal clearance) (converted)
Experimental: In this randomized, double-blind, placebo-controlled, multiple ascending dose, parallel-group study, HBEC, healthy subjects (Part A) and participants with PD (Part B) received once-daily doses of LY3154207 (15, 30, 75, or 150 mg in Part A and up to 75 mg in Part B) or placebo for 14 days, as illustrated in FIG. 3. […]
Quantity Kind: CL renal (mL/min)

> print(dat)
                                   molecule  quantitative.readout
1  C[C@H]1c2cccc(CCC(C)(C)O)c2C[C@H](CO)N1C(=O)Cc1c(Cl)cccc1Cl [LY3154207]                  0.04

----------
Assay Text: HBEC Part A pharmacokinetics, healthy subjects
Assay type: in vivo, human
Condition Set: human, in vivo, oral, Day 14, LY 75 mg (N = 9), read-out: tmax, median
Method: In this randomized, double-blind, placebo-controlled, multiple ascending dose, parallel-group study, HBEC, healthy subjects (Part A) and participants with PD (Part B) received once-daily doses of LY3154207 (15, 30, 75, or 150 mg in Part A and up to 75 mg in Part B) or placebo for 14 days, as illustrated in FIG. 3. […]
Quantity Kind: Tmax

> print(dat)
                                   molecule  quantity.kind  result
1  C[C@H]1c2cccc(CCC(C)(C)O)c2C[C@H](CO)N1C(=O)Cc1c(Cl)cccc1Cl [LY3154207]           Tmax     2 h

----------
Assay Text: HBEC Part A pharmacokinetics, healthy subjects
Format: in vivo, human
Condition Set: human, in vivo, oral, Day 14, LY 75 mg (N = 9), geometric mean
Quantity Kind: Cmax (ng/mL)

> print(dat)
                                item.smiles  quantitative.readout
1  C[C@H]1c2cccc(CCC(C)(C)O)c2C[C@H](CO)N1C(=O)Cc1c(Cl)cccc1Cl                   307

----------
Assay Text: HBEC Part A pharmacokinetics, healthy subjects
Format: in vivo, human
Condition Set: human, in vivo, oral, Day 14, LY 30 mg (N = 9), geometric mean
Experimental: In this randomized, double-blind, placebo-controlled, multiple ascending dose, parallel-group study, HBEC, healthy subjects (Part A) and participants with PD (Part B) received once-daily doses of LY3154207 (15, 30, 75, or 150 mg in Part A and up to 75 mg in Part B) or placebo for 14 days, as illustrated in FIG. 3. […]
Quantity Kind: Cmax (ng/mL)

> print(dat)
                                   compound  unit.abbreviation  quantitative.readout
1  C[C@H]1c2cccc(CCC(C)(C)O)c2C[C@H](CO)N1C(=O)Cc1c(Cl)cccc1Cl [LY3154207]              ng/mL                   149
